Target: Dimer of Gag-Pol polyprotein [501-599,Q508K,L534I,L564I,C568A,C596A] (Human immunodeficiency virus 1, UniProt P03367, C568A/C596A/L534I/L564I/Q508K)
Construct: 501-599
Assay: Protease Inhibition Assay
Details: pH 6.4; 25 °C
measured quantity: Ki

## Input Looking for the measured Ki of O=C(N[C@H]1c2ccccc2C[C@H]1O)[C@H](Cc1ccccc1)C[C@H](O)CN1C(=O)[C@H](Cc2ccccc2)C[C@@H]1Cc1ccccc1 , can you help?
## Output > 500 pM
